molecular target: UniProt Q07817; test: Bcl-xL binding affinity analysis (fluorescence polarization binding assay); parameters: scale not given here

molecule	Bcl-XL binding affinity Ki
CC(O)C1C(CO)ON(Cc2cccc(CN(CCN(C)C)CC3CCOC3)c2)C1C(=O)NC1CC2CC(C1C)C2(C)C (stereo not drawn)	♯
CC(O)C1C(CO)ON(Cc2cccc(CN(CCN(C)C)Cc3ccccc3N3CCN(C)CC3)c2)C1C(=O)NC1CC2CC(C1C)C2(C)C (stereo not drawn)	♯
CCN1CCC[C@H]1CNC(=O)c1cccc(-c2cccc(CN3O[C@@H](CO)[C@@H]([C@H](C)O)[C@H]3C(=O)N[C@H]3C[C@H]4C[C@@H]([C@@H]3C)C4(C)C)c2OC)c1	♯

---

target: Bcl-xL (Homo sapiens, UniProt Q07817); test: Bcl-xL binding affinity analysis (fluorescence polarization binding assay); set-up: scale not given here
Sequence (Q07817 whole entry): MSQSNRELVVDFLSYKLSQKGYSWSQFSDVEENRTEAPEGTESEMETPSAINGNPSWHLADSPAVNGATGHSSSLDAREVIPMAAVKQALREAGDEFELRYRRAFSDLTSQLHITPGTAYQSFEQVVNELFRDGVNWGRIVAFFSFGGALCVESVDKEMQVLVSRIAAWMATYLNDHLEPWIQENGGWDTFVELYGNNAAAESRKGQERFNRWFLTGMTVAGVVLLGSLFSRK

molecule	study.system	Bcl-XL binding affinity Ki
CC(O)C1C(CO)ON(Cc2cccc(CN(CCN(C)C)c3ccccc3)c2)C1C(=O)NC1CC2CC(C1C)C2(C)C (stereo not drawn)	Bcl-xL (Homo sapiens, UniProt Q07817)	♯
C[C@@H]1[C@@H](NC(=O)[C@@H]2[C@H]([C@H](C)O)[C@H](CO)ON2Cc2cccc(N3CCN(C(=S)NCCc4ccccc4)CC3)c2)C[C@H]2C[C@@H]1C2(C)C	Bcl-xL (Homo sapiens, UniProt Q07817)	♯
Cc1cc(-c2cccc(CN3O[C@@H](CO)[C@@H]([C@H](C)O)[C@H]3C(=O)N[C@H]3C[C@H]4C[C@@H]([C@@H]3C)C4(C)C)c2)ccc1C(=O)N(C)C	Bcl-xL (Homo sapiens, UniProt Q07817)	♯♯
C[C@@H]1[C@@H](NC(=O)[C@@H]2[C@H]([C@H](C)O)[C@H](CO)ON2CCCCN(CCCc2ccccc2)CCN(C)C)C[C@H]2C[C@@H]1C2(C)C	Bcl-xL (Homo sapiens, UniProt Q07817)	♯
CC(O)C1C(CO)ON(Cc2cccc(CNC(CN(C)C)c3ccccc3)c2)C1C(=O)NC1CC2CC(C1C)C2(C)C (stereo not drawn)	Bcl-xL (Homo sapiens, UniProt Q07817)	♯
CC(C)CC(CN(C)C)N(Cc1cccc(CN2OC(CO)C(C(C)O)C2C(=O)NC2CC3CC(C2C)C3(C)C)c1)Cc1cccc(C(C)(C)C)c1O (stereo not drawn)	Bcl-xL (Homo sapiens, UniProt Q07817)	♯
C[C@@H]1[C@@H](NC(=O)[C@@H]2[C@H]([C@H](C)O)[C@H](CO)ON2Cc2cccc(-c3ccc4c(=O)n(C)n(C)c(=O)c4c3)c2)C[C@H]2C[C@@H]1C2(C)C	Bcl-xL (Homo sapiens, UniProt Q07817)	♯
COc1ccccc1CN(Cc1cccc(CN2OC(CO)C(C(C)O)C2C(=O)NC2CC3CC(C2C)C3(C)C)c1)C(CC(C)C)CN(C)C (stereo not drawn)	Bcl-xL (Homo sapiens, UniProt Q07817)	♯
CC(O)C1C(CO)ON(Cc2cccc(CN(CCN(C)C)Cc3cccc(C(F)(F)F)c3)c2)C1C(=O)NC1CC2CC(C1C)C2(C)C (stereo not drawn)	Bcl-xL (Homo sapiens, UniProt Q07817)	♯
CCN(CC)CCN(Cc1ccccc1)Cc1cccc(CN2OC(CO)C(C(C)O)C2C(=O)NC2CC3CC(C2C)C3(C)C)c1 (stereo not drawn)	Bcl-xL (Homo sapiens, UniProt Q07817)	♯
C[C@@H](O)[C@H]1[C@@H](CO)ON(Cc2cccc(C#CCNC(=O)c3ccccc3)c2)[C@H]1C(=O)NCc1ccc(-c2ccccc2)cc1	Bcl-xL (Homo sapiens, UniProt Q07817)	♯♯
CC(O)C1C(CO)ON(Cc2cccc(CN(CCN(C)C)C(C)(C)c3ccccc3)c2)C1C(=O)NC1CC2CC(C1C)C2(C)C (stereo not drawn)	Bcl-xL (Homo sapiens, UniProt Q07817)	♯

---

test system: Human Pancreatic Cancer Cell Line Panc1; test: Cell death assay (propidium iodide/Hoechst) in Panc1 cells with or without camptothecin; format: cell-based; conditions: with 3 uM Camptothecin, 72 hours, % cell death by propidium iodide/Hoechst, read-out: Panc1 + Cpt IC50
pIC50: −log10 of the molar value.
This listing pairs compounds with measured pIC50.

compound	pIC50
CC(C)CC(CN(C)C)N(Cc1cccc(CN2OC(CO)C(C(C)O)C2C(=O)NC2CC3CC(C2C)C3(C)C)c1)Cc1ccccc1[N+](=O)[O-] (stereo not shown) [Compound 316]	< 5.60
CCOc1c(CN2O[C@@H](CO)[C@@H]([C@H](C)O)[C@H]2C(=O)N[C@H]2C[C@H]3C[C@@H]([C@@H]2C)C3(C)C)cccc1-c1cccc(C(=O)N[C@H](CC(C)C)CN(C)C)c1 [Compound 494]	< 5.60
CC(O)C1C(CO)ON(Cc2cccc(CN(CCN(C)C)Cc3ccccc3I)c2)C1C(=O)NC1CC2CC(C1C)C2(C)C (stereo not shown) [Compound 394]	< 5.60
CC(C)CC(CN(C)C)N(Cc1cccc(CN2OC(CO)C(C(C)O)C2C(=O)NC2CC3CC(C2C)C3(C)C)c1)Cc1ccccc1F (stereo not shown) [Compound 312]	< 5.60
CC(O)C1C(CO)ON(Cc2cccc(CN(CC(=O)N(C)C)Cc3ccccc3)c2)C1C(=O)NC1CC2CC(C1C)C2(C)C (stereo not shown) [Compound 471]	< 5.60
CC(O)C1C(CO)ON(Cc2cccc(CN(CCN3CCCC3)Cc3ccccc3)c2)C1C(=O)NC1CC2CC(C1C)C2(C)C (stereo not shown) [Compound 430]	< 5.60
CC(O)C1C(CO)ON(Cc2cccc(CN(Cc3ccccc3)C(CN(C)C)CC(C)(C)C)c2)C1C(=O)NC1CC2CC(C1C)C2(C)C (stereo not shown) [Compound 414]	5.60 to 5.74
CC(C)CC(CN(C)C)N(Cc1cccc(CN2OC(CO)C(C(C)O)C2C(=O)NC2CC3CC(C2C)C3(C)C)c1)Cc1c(F)cccc1Cl (stereo not shown) [Compound 307]	< 5.60
CC(O)C1C(CO)ON(Cc2cccc(C(=O)NC(CCc3ccccc3)CN(C)C)c2)C1C(=O)NC1CC2CC(C1C)C2(C)C (stereo not shown) [Compound 498]	< 5.60
CC(O)C1C(CO)ON(Cc2cccc(CNC(CC3CCCCCC3)CN(C)C)c2)C1C(=O)NC1CC2CC(C1C)C2(C)C (stereo not shown) [Compound 472]	< 5.60
CC(C)C(CN(C)C)N(Cc1ccccc1)Cc1cccc(CN2OC(CO)C(C(C)O)C2C(=O)NC2CC3CC(C2C)C3(C)C)c1 (stereo not shown) [Compound 415]	< 5.60
CC(O)C1C(CO)ON(Cc2cccc(CN3Cc4ccccc4C3CN(C)C)c2)C1C(=O)NC1CC2CC(C1C)C2(C)C (stereo not shown) [Compound 470]	< 5.60
CC(C)CC(CN(C)C)N(Cc1cccc(CN2OC(CO)C(C(C)O)C2C(=O)NC2CC3CC(C2C)C3(C)C)c1)Cc1ccccc1OC(F)(F)F (stereo not shown) [Compound 320]	5.60 to 5.74

---

Reported values: Ki for UniProt P10415, one per item.
Sequence (P10415 whole entry): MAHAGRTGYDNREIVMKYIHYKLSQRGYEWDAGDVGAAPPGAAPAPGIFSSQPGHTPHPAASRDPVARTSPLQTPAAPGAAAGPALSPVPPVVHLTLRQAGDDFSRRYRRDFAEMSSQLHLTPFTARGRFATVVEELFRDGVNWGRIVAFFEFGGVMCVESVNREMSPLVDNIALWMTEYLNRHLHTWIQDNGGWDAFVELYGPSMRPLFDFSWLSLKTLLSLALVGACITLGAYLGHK
readout: Ki

molecule	value
Cc1ccccc1CN(CCN(C)C)Cc1cccc(CN2OC(CO)C(C(C)O)C2C(=O)NC2CC3CC(C2C)C3(C)C)c1 (stereo not drawn)	< 0.8 µM
COc1ccc(C(O)C#Cc2cccc(CN3O[C@H](CO)[C@H]([C@@H](C)O)[C@@H]3C(=O)NCCCN(C)c3ccccc3)c2)c(C)c1 (stereo partly drawn)	< 0.8 µM
C[C@@H]1[C@@H](NC(=O)[C@@H]2[C@H]([C@H](C)O)[C@H](CO)ON2Cc2cccc(-c3cccc(C(=O)NCCN(C)C)c3)c2)C[C@H]2C[C@@H]1C2(C)C	< 0.8 µM
C[C@@H](O)[C@H]1[C@@H](CO)ON(Cc2cccc(C#C[C@@H](O)c3ccccc3)c2)[C@H]1C(=O)NCCCN(C)c1ccccc1	0.8 to 6 µM
CC(O)C1C(CO)ON(Cc2cccc(CNC(CC3CCCCCC3)CN(C)C)c2)C1C(=O)NC1CC2CC(C1C)C2(C)C (stereo not drawn)	< 0.8 µM
COc1c(CN2O[C@@H](CO)[C@@H]([C@H](C)O)[C@H]2C(=O)N[C@H]2C[C@H]3C[C@@H]([C@@H]2C)C3(C)C)cccc1-c1cccc(C(=O)N[C@@H](CN(C)C)C(C)C)c1	< 0.8 µM

---

This listing pairs compounds with measured pIC50.
test system: Human Pancreatic Cancer Cell Line Panc1; test: Cell death assay (propidium iodide/Hoechst) in Panc1 cells with or without camptothecin; assay type: cell-based; settings: with 3 uM Camptothecin, 72 hours, % cell death by propidium iodide/Hoechst, read-out: Panc1 + Cpt IC50
pIC50: −log10 of the molar value.

compound	pIC50
Cc1cccc(CN(CCN(C)C)Cc2cccc(CN3OC(CO)C(C(C)O)C3C(=O)NC3CC4CC(C3C)C4(C)C)c2)c1 (stereo not drawn)	< 5.60
COc1c(CN2O[C@@H](CO)[C@@H]([C@H](C)O)[C@H]2C(=O)N[C@H]2C[C@H]3C[C@@H]([C@@H]2C)C3(C)C)cccc1-c1cccc(C(=O)N[C@H](Cc2ccccc2)CN(C)C)c1	< 5.60
C[C@@H]1[C@@H](NC(=O)[C@@H]2[C@H]([C@H](C)O)[C@H](CO)ON2Cc2cccc(-c3cccc(C(=O)NCCN(C)C)c3)c2OCC2CC2)C[C@H]2C[C@@H]1C2(C)C	< 5.60
CC(O)C1C(CO)ON(Cc2cccc(CN(CCN(C)C)Cc3cccs3)c2)C1C(=O)NC1CC2CC(C1C)C2(C)C (stereo not drawn)	< 5.60
CCN(CC)CCN(Cc1ccccc1)Cc1cccc(CN2OC(CO)C(C(C)O)C2C(=O)NC2CC3CC(C2C)C3(C)C)c1 (stereo not drawn)	< 5.60
COc1c(CN2O[C@@H](CO)[C@@H]([C@H](C)O)[C@H]2C(=O)N[C@H]2C[C@H]3C[C@@H]([C@@H]2C)C3(C)C)cccc1-c1cccc(C(=O)N[C@H](CN(C)C)C2CCCCC2)c1	5.74 to 5.89
